Listing of recorded pKd by entry.
Target: T1, truncated hTfR1 of SEQ ID NO:122 (human, UniProt P02786 122-760)
T1 construct: also called human TfR1; Human TfR1
T1 sequence (P02786 other isoform, or with tags, fused parts or gaps limits assumed): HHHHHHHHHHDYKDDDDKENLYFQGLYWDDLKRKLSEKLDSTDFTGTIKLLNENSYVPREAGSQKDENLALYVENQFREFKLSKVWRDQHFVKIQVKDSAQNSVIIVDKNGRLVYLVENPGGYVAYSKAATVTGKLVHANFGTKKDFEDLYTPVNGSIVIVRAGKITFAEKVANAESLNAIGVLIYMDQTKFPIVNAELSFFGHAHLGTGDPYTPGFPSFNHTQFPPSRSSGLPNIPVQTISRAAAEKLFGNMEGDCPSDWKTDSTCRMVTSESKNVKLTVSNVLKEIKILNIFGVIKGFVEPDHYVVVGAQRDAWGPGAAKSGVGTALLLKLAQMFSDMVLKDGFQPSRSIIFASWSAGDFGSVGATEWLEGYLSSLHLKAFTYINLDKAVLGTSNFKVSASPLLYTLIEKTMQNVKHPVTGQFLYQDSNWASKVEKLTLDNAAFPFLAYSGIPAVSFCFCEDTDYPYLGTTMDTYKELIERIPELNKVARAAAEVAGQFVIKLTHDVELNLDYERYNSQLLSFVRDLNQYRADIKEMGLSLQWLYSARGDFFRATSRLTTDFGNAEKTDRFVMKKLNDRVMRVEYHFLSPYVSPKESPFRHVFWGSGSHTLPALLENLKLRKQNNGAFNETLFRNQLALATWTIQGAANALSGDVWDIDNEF
Experiment: SPR, FLAG-captured TfR1, scFv injected, 1:1 fit
pKd: −log10 of the molar value.
observationType: pKd

h26D3 HC6 DS V11R T91A (scFv, also called h26D3 DS V11R T91A) scFv: HHHHHHGGGGSGGGGSGGGGSGGGGSDIQMTQSPSSVSASVGDRVTITCKSSQSLLYSTNQKNYLAWYQQKPGKAPKLLIYWASTRESGVPSRFSGSGSGTDFTLTISSLQPEDFATYYCQQYFIYPRTFGCGTKVEIKGGGGSGGGGSGGGGSGGGGSEVQLVQSGAERKKPGSSVKVSCKASGYIFTDYNMDWVRQAPGQCLEWIGDINPDADTTSYNEKFKGRATLTVDKSTSTAYMELSSLRSEDAAVYYCARGGYSGSSYYHPMDYWGQGTLVTVSS; 7.21
h26D3 HC6 DS T91A (scFv, also called h26D3 DS T91A) scFv: HHHHHHGGGGSGGGGSGGGGSGGGGSDIQMTQSPSSVSASVGDRVTITCKSSQSLLYSTNQKNYLAWYQQKPGKAPKLLIYWASTRESGVPSRFSGSGSGTDFTLTISSLQPEDFATYYCQQYFIYPRTFGCGTKVEIKGGGGSGGGGSGGGGSGGGGSEVQLVQSGAEVKKPGSSVKVSCKASGYIFTDYNMDWVRQAPGQCLEWIGDINPDADTTSYNEKFKGRATLTVDKSTSTAYMELSSLRSEDAAVYYCARGGYSGSSYYHPMDYWGQGTLVTVSS; 7.22
h26D3 HC6 DS S122K (scFv, also called h26D3 DS S122K) scFv: HHHHHHGGGGSGGGGSGGGGSGGGGSDIQMTQSPSSVSASVGDRVTITCKSSQSLLYSTNQKNYLAWYQQKPGKAPKLLIYWASTRESGVPSRFSGSGSGTDFTLTISSLQPEDFATYYCQQYFIYPRTFGCGTKVEIKGGGGSGGGGSGGGGSGGGGSEVQLVQSGAEVKKPGSSVKVSCKASGYIFTDYNMDWVRQAPGQCLEWIGDINPDADTTSYNEKFKGRATLTVDKSTSTAYMELSSLRSEDTAVYYCARGGYSGSSYYHPMDYWGQGTLVTVKS; 7.27
h26D3 HC6 DS V11R (scFv, also called h26D3 DS V11R) scFv: HHHHHHGGGGSGGGGSGGGGSGGGGSDIQMTQSPSSVSASVGDRVTITCKSSQSLLYSTNQKNYLAWYQQKPGKAPKLLIYWASTRESGVPSRFSGSGSGTDFTLTISSLQPEDFATYYCQQYFIYPRTFGCGTKVEIKGGGGSGGGGSGGGGSGGGGSEVQLVQSGAERKKPGSSVKVSCKASGYIFTDYNMDWVRQAPGQCLEWIGDINPDADTTSYNEKFKGRATLTVDKSTSTAYMELSSLRSEDTAVYYCARGGYSGSSYYHPMDYWGQGTLVTVSS; 7.27
h26D3 HC6 DS T91S T120K (scFv, also called h26D3 DS T91S T120K) scFv: HHHHHHGGGGSGGGGSGGGGSGGGGSDIQMTQSPSSVSASVGDRVTITCKSSQSLLYSTNQKNYLAWYQQKPGKAPKLLIYWASTRESGVPSRFSGSGSGTDFTLTISSLQPEDFATYYCQQYFIYPRTFGCGTKVEIKGGGGSGGGGSGGGGSGGGGSEVQLVQSGAEVKKPGSSVKVSCKASGYIFTDYNMDWVRQAPGQCLEWIGDINPDADTTSYNEKFKGRATLTVDKSTSTAYMELSSLRSEDSAVYYCARGGYSGSSYYHPMDYWGQGTLVKVSS; 7.18
h26D3-HC6_DS, VL-first (scFv) scFv: DIQMTQSPSSVSASVGDRVTITCKSSQSLLYSTNQKNYLAWYQQKPGKAPKLLIYWASTRESGVPSRFSGSGSGTDFTLTISSLQPEDFATYYCQQYFIYPRTFGCGTKVEIKGGGGSGGGGSGGGGSGGGGSEVQLVQSGAEVKKPGSSVKVSCKASGYIFTDYNMDWVRQAPGQCLEWIGDINPDADTTSYNEKFKGRATLTVDKSTSTAYMELSSLRSEDTAVYYCARGGYSGSSYYHPMDYWGQGTLVTVSS; 7.16
h26D3 HC6 DS T91S S122K (scFv, also called h26D3 DS T91S S122K) scFv: HHHHHHGGGGSGGGGSGGGGSGGGGSDIQMTQSPSSVSASVGDRVTITCKSSQSLLYSTNQKNYLAWYQQKPGKAPKLLIYWASTRESGVPSRFSGSGSGTDFTLTISSLQPEDFATYYCQQYFIYPRTFGCGTKVEIKGGGGSGGGGSGGGGSGGGGSEVQLVQSGAEVKKPGSSVKVSCKASGYIFTDYNMDWVRQAPGQCLEWIGDINPDADTTSYNEKFKGRATLTVDKSTSTAYMELSSLRSEDSAVYYCARGGYSGSSYYHPMDYWGQGTLVTVKS; 7.30
